The reported numbers originate from patent US11179471B2.

System: HeLa cells
measurement.notes: Release of Alexa 488-dextran (10 kDa) into the cytoplasm, confocal microscopy
Format: cell-based
condition: Alexa 488-dextran (10 kDa) 200 μg/mL, 1 hour, read-out: peptide concentration required to detect the signal of intracellularly released Alexa 488-dextran in 50% of the cells
No end group written: not given here.
property.name: EC50 (µM)
Output spec: scalar in µM, unitless text.

Input: Report EC50 under test system HeLa cells for IWLTALKFLGKHAAKHEAKQQLSKL-NH2 [L17E, reference compound] .
Output: 40

----------
Overview of reported viability at 24 h across a group of substances:
measurement.notes: Cell viability 24 hours after peptide treatment in the presence of serum (WST-8)
Type: cell-based
condition: cells (cell line not given); peptide 10 μM, 20 μM and 40 μM; α-MEM(+) 24 hours; WST-8
No end group written: not given here.

{"substance": "IWLTALKFLGKHAAKHEAKQQLSKL-NH2 [L17E, reference compound]", "viability at 24 h": "~100%"}

Input: Indicate its recorded viability at 24 h; the substance in question is H-IWLTALKFLGKAAAKAEAKQELSKL-NH2 [HA/E2]
Output: ~100%
